# TARGET_OR_TEST_SYSTEM: Sodium-dependent noradrenaline transporter (Rattus norvegicus)
# PROTOCOL_NOTES: In vitro binding affinity against norepinephrine transporter using [3H]-nisoxetine as radioligand
Entries and their pKi
Quick note: pKi values are minus log10 of concentrations in mol/L.

Here is how some molecules turned out for pKi.
>  <CHEMICAL_SMILES>
Brc1ccc2c(c1)[C@H]1O[C@H](Cn3oc4ccc(CN5CCOCC5)cc43)C[C@H]1c1ccccc1O2

>  <pKi>
5.51

$$$$
>  <CHEMICAL_SMILES>
CN(C)c1ccc2on(C[C@@H]3C[C@H]4c5ccccc5Oc5ccc(Br)cc5[C@H]4O3)c2c1

>  <pKi>
5.65

$$$$

// field: pKi; key: "Nc1ccc2on(C[C@@H]3C[C@H]4c5ccccc5Oc5ccc(Br)cc5[C@H]4O3)c2c1" ; value = 6.21
